- EXPERIMENT: Inhibition of squalene-hopene cyclase
MEASURE: pIC50

Lookup: Data request, read-out pIC50, for C=CCN(C)CCCCCCOc1ccc(C(=O)c2ccc(Br)cc2)cc1
Found: 7.02

Lookup: Entry C=CCN(C)CCCCCCOC1CCN(C(=O)c2ccc(F)cc2)CC1 please
Found: 5.92

Lookup: Entry C=CCN(C)C/C=C/COc1ccc2c(-c3ccc(Br)cc3)noc2c1 please
Found: 7.31

Lookup: Entry CN(CCCO)CCCCCCOc1ccc(C(=O)c2ccc(Br)cc2)cc1 please
Found: 6.55

Lookup: Entry CN(C[C@H]1C[C@@H]1COc1ccc(C(=O)c2ccc(Br)cc2)cc1)C1CC1 please
Found: 7.21

Lookup: Entry CN(CCCCCCOC1CCN(C(=O)c2ccc(F)cc2)CC1)C1CC1 please
Found: 6.12

Lookup: Entry CN(CCCCCCOc1ccc(C(=O)c2ccc(Br)cc2)c(F)c1)C1CC1 please
Found: 7.42

Lookup: Entry C=CCN(C)C/C=C/COc1ccc(-c2nsc3cc(Br)ccc23)cc1 please
Found: 6.89

Lookup: Entry C=CCN(C)C/C=C/COc1ccc(C(=O)c2ccc(Br)cc2)cc1 please
Found: 7.4

Lookup: Entry CN(C[C@H]1C[C@@H]1COc1ccc(C(=O)c2ccc(Br)cc2)c(F)c1)C1CC1 please
Found: 7.3

Lookup: Entry C=CCN(C)C/C=C/COc1ccc2c(-c3ccc(Br)cc3)csc2c1 please
Found: 7.12

Lookup: Entry C=CCN(C)CCCCCCOc1ccc2c(-c3ccc(Br)cc3)noc2c1 please
Found: 7.12

Lookup: Entry C=CCN(C)CCCCCCOc1ccc2c(c1)CON=C2c1ccc(Br)cc1 please
Found: 6.76
